Experiment Notes: Human HepG2 cell viability assay in 384 well format
Type: toxicity, cell-based
Design: dose 125 nL, time 70.5 hour; concentration not given beside the values
Applied Conditions: HepG2 cells, read-out: Inhibition
Result Type: cytotoxicity at 70.5 h (%)
Give the value in % but do not write % after it.

COc1ccc(-c2csc(N)c2C#N)cc1OC    -13
COc1cc(C)c(C)cc1S(=O)(=O)N(C)CC(=O)Nc1ccon1    -15.2
CCc1ccc(-c2cc(C(F)(F)F)nc(N3CCC(N)CC3)n2)cc1    101

Look up cytotoxicity at 70.5 h of O=C(CCC1CCCC1)NCCn1nc(C2CCNC2)c2nccnc21 (stereo not given) and report it.
34.9

Look up cytotoxicity at 70.5 h of "Cn1c(N)nnc1SCc1c(F)cccc1Br" and report it.
-3.61

----------
Reported cytotoxicity at 70.5 h values are given for each entry in this list.
Experiment Notes: Human HepG2 cell viability assay in 384 well format
Format: toxicity, cell-based
Design: dose 125 nL, time 70.5 hour; concentration not given beside the values
Applied Conditions: HepG2 cells, read-out: Inhibition
Give the value in % but do not write % after it.

Cc1ccc2c(c1)OCCCC2NC1CCN(C)CC1 (centres undefined)    -0.243
CCS(=O)(=O)N1CCN(Cc2cccnc2)c2nc(C)ccc2C1    5.16
CC(O)CN1CCN(C(=O)c2ccn(-c3cccc(Cl)c3)n2)CC1 (centres undefined)    13.7
Cc1nc(C2CCN(S(=O)(=O)c3ccc(Cl)cc3)CC2)n[nH]1    1.07

Look up cytotoxicity at 70.5 h of "Cn1cc(-c2cnc(N3CCOCC3)nc2)cc1C(=O)NCCO" and report it.
-6.33

Look up cytotoxicity at 70.5 h of CC(Cc1cccs1)NC(=O)CCn1cccn1 (centres undefined) and report it.
-0.682

Look up cytotoxicity at 70.5 h of "COc1c(CNC2CCN(c3ccccn3)CC2)c(C(C)C)nn1C" and report it.
5.04

Look up cytotoxicity at 70.5 h of "CCOc1ccc(C(=O)N(C)C)cc1NC(=O)c1ccsc1" and report it.
-10.6

Look up cytotoxicity at 70.5 h of CCn1ccnc1C1CCCN(c2nccc3ccccc23)C1 (centres undefined) and report it.
-8.19

----------
Experiment Notes: Human HepG2 cell viability assay in 384 well format
Format: toxicity, cell-based
Set-up: dose 125 nL, time 70.5 hour; concentration not given beside the values
Applied Conditions: HepG2 cells, read-out: Inhibition
Result Type: cytotoxicity at 70.5 h (%)
Give the value in % but do not write % after it.

These recorded examples may help you get a feel for the data.
CC(=O)N(Cc1noc(C2CC2)n1)C1CCN(Cc2cc(C)on2)C1 (stereo unspecified)    -3.51
O=c1cc(CN2CCCC2)nc2n1CCCN(Cc1ccoc1)C2    1.82
O=C(CNC(=O)C1(c2ccc(F)cc2F)CCC1)Nc1cccnc1    31.2
Cc1ccc(NC2CCN(C(=O)CCc3c(C)noc3C)CC2)nn1    -11.1

Look up cytotoxicity at 70.5 h of "Cc1cc(CN2CCN(C(=O)CCc3cccs3)CC2)on1" and report it.
-18.8

Look up cytotoxicity at 70.5 h of "O=C(NCCN1CCCCC1)c1nc2ccccc2c(=O)[nH]1" and report it.
4.35

----------
Experiment Notes: Human HepG2 cell viability assay in 384 well format
Assay type: toxicity, cell-based
Design: dose 125 nL, time 70.5 hour; concentration not given beside the values
Applied Conditions: HepG2 cells, read-out: Inhibition
Reported cytotoxicity at 70.5 h values are given for each entry in this list.
Give the value in % but do not write % after it.

CCC(C)CNC(=O)[C@@H]1CCCN1c1nccc(Nc2ccccc2)n1 (some centres undefined)    1.56
Cc1ccc(NC2CCN(C(=O)c3cc(C(N)=O)cs3)CC2)nn1    11.5
CCc1noc(CCCC(=O)N2CCCC(c3ccn[nH]3)C2)n1 (centres undefined)    -5.32
COCCN1CCO[C@@H]2CN(C(=O)Cc3cccc(F)c3)CC[C@@H]2C1    -0.585
Cc1ccccc1-c1noc(CN2CCc3nn(C)c(=O)cc3C2)n1    -11.6

Look up cytotoxicity at 70.5 h of O=C(C1CCCC1)N1CCCC(c2nc(O)cc(-c3ccncc3)n2)C1 (centres undefined) and report it.
5.93

Look up cytotoxicity at 70.5 h of "COc1cccc2c(=O)n(Cc3cccnc3)cnc12" and report it.
-6.26

Look up cytotoxicity at 70.5 h of "O=C(Nc1ccncc1)N(CCO)Cc1ccsc1" and report it.
-20

Look up cytotoxicity at 70.5 h of "O=C(CCc1cc(Cl)no1)N1CCN(CCn2cncn2)CC1" and report it.
-0.942

Look up cytotoxicity at 70.5 h of Cc1noc(C)c1-c1cccc(CC2CCN(C(=O)CN)C2)n1 (centres undefined) and report it.
-4.83

Look up cytotoxicity at 70.5 h of COCCN1CCC2(COCc3cnc(N(C)C)nc32)C1 (centres undefined) and report it.
-2.9

----------
Experiment Notes: Human HepG2 cell viability assay in 384 well format
Format: toxicity, cell-based
Set-up: dose 125 nL, time 70.5 hour; concentration not given beside the values
Applied Conditions: HepG2 cells, read-out: Inhibition
Result Type: cytotoxicity at 70.5 h (%)
Give the value in % but do not write % after it.

These recorded examples may help you get a feel for the data.
CC[C@H](C)Nc1nccc(-c2cnc3sccn3c2=O)n1    -4.72
Cn1ccc(C(=O)N2C[C@@H]3OCCN(c4ncccn4)[C@@H]3C2)n1    -12.1
CC(O)CNCc1ccc(OCc2ccc3c(c2)OCCO3)cc1 (configuration not stated)    19.4
CS(=O)(=O)NC1CCCN(Cc2ccccn2)C1 (configuration not stated)    -1.75
CCC(C)NC(=O)CN1CCOCC1 (configuration not stated)    -5.48
Cn1cc(C(=O)N2CCCC(n3cncn3)C2)ccc1=O (configuration not stated)    -9.74
O=C(c1cccc(CNS(=O)(=O)c2ccc(F)cc2)c1)N1CCCC1    -9.64
Cc1nn(C)c2c(=O)n(C(C)C)c(NCCc3ccccc3)nc12    24.5
CCCn1[nH]cc/c1=N\C(=O)CN1CCCC1Cn1cc(C)cn1 (configuration not stated)    -4.99
COCC(C)NC(=O)c1cn(C(C)(C)C)c2ncccc12 (configuration not stated)    -6.59

Look up cytotoxicity at 70.5 h of N#Cc1cccc(OCCN2CCCC2C(=O)Nc2nccs2)c1 (configuration not stated) and report it.
29

Look up cytotoxicity at 70.5 h of CC(Cn1cccn1)NC(=O)N1CCN(Cc2ccsc2)CC1 (configuration not stated) and report it.
-1.89

----------
Reported cytotoxicity at 70.5 h values are given for each entry in this list.
Experiment Notes: Human HepG2 cell viability assay in 384 well format
Assay type: toxicity, cell-based
Parameters: dose 125 nL, time 70.5 hour; concentration not given beside the values
Applied Conditions: HepG2 cells, read-out: Inhibition
Give the value in % but do not write % after it.

C[C@@H]1CN(C(=O)c2ccsc2)C[C@]12CCN(c1ccsc1)C2=O    1.23
CN(C)[C@H]1CCCCN(C(=O)CCc2csc(N)n2)C1    -6.16
CCOCCn1nnc(C2(NC(=O)c3ccccc3)CCCC2)n1    3.3
CCN(Cc1ccccc1)C(=O)CCN1CC(O)C1    -16.3
CCS(=O)(=O)N1CCCc2ccc(NC(=O)Cc3ccc(F)cc3)cc21    36.7

Look up cytotoxicity at 70.5 h of CCC(C(=O)NC1CCN(S(C)(=O)=O)CC1)n1cccn1 (centres undefined) and report it.
-7.66

Look up cytotoxicity at 70.5 h of CN1CCC(NC(=O)C2CN(c3cncnc3)CCO2)CC1 (centres undefined) and report it.
-7.93

Look up cytotoxicity at 70.5 h of "O=C(c1ccccc1-n1cnnn1)N1CCC2(CC1)OCCO2" and report it.
-1.41

Look up cytotoxicity at 70.5 h of "Cc1n[nH]c(C)c1Sc1ccccc1NC(=O)N1CCN(C)CC1" and report it.
50.2

----------
Experiment Notes: Human HepG2 cell viability assay in 384 well format
Assay type: toxicity, cell-based
Design: dose 125 nL, time 70.5 hour; concentration not given beside the values
Applied Conditions: HepG2 cells, read-out: Inhibition
Result Type: cytotoxicity at 70.5 h (%)
Give the value in % but do not write % after it.

COCCN(C)CCN1CC2(CCN(C3CCNCC3)CC2)OC1=O    -10.2
Cc1csc(NC(=O)NCCCN2CCC(C(N)=O)CC2)n1    -16.3
CCCC(O)CN1CCC(=O)N(Cc2ccccc2)Cc2ccccc21 (stereo unspecified)    2.6
CCN(C)C1COC2(CCN(C(=O)c3cccc(Cl)c3)CC2)C1 (stereo unspecified)    -6.18
Cc1cc(C(=O)N2CCN(Cn3cc(Cl)cn3)CC2)c(C)o1    -5.19

Now for a further compound.
Look up cytotoxicity at 70.5 h of "CN(CCO)C[C@@H]1CN(C(=O)Cc2ccc3ccccc3c2)C[C@@H]1CO" and report it.
-4.17
